The following compounds are listed with their measured Percent Effect values.
Test: In vitro enzyme assay to detect hydrolysis of chlorophenol red-beta-D-[…] directly proportional to the number of Toxoplasma stably expressing beta-galactosidase
Type: functional, organism-based, Toxoplasma gondii
Design: scale not given: in the data most compounds retested in dose-response had high values
Conditions: 50 µM
Among all 85,000 compounds or so, about 440 (0.52%) showed an effect of 50% or more. The full list was thinned out, with strong results kept by preference.
Lab book: enter the figure in %, no units written.

Known Percent Effect results, listed for orientation:
compound="COc1ncccc1CNC(=O)NC1CCS(=O)(=O)C1 (stereo unspecified)" observed_property="Percent Effect" data_value=-1.32
compound=O=C(NC1(CCO)CCC1)c1c(O)cc(F)cc1F observed_property="Percent Effect" data_value=-3.362
compound=Cc1ocnc1CNC(=O)c1ccon1 observed_property="Percent Effect" data_value=99.22
compound="O=C(Nc1cccc(F)c1)C1CCCN1 (stereo unspecified)" observed_property="Percent Effect" data_value=7.876
compound="Cn1cc(NC(=O)CC2C=CCC2)cc(Br)c1=O (stereo unspecified)" observed_property="Percent Effect" data_value=-2.451

Note: attention shifts to another entry.
// query GET /values?readout=Percent Effect&item= CCCNC(=O)CCn1nc(C)cc1C
// result 59.42

###

Assay: In vitro enzyme assay to detect hydrolysis of chlorophenol red-beta-D-[…] directly proportional to the number of Toxoplasma stably expressing beta-galactosidase
Type: functional, organism-based, Toxoplasma gondii
Parameters: scale not given: in the data most compounds retested in dose-response had high values
Conditions: 50 µM
About 440 (0.52%) of roughly 85,000 compounds showed an effect of 50% or more. The list comes from a sample in which strong results are over-represented; it also holds close analogues and randomly drawn compounds.
Observed Property: Percent Effect (%)
Please reply with the bare figure in % and do not write the unit itself.

Example entries and their recorded answers appear below.
compound=NC(=O)NC(=O)CSc1ncccn1 data_value=-2.425
compound="O=C(C(O)c1ccccc1)N(CCO)Cc1ccsc1 (stereo unspecified)" data_value=11.77
compound=COCC(=O)N[C@H]1CN(CCS(C)(=O)=O)C[C@@H]1C(C)C data_value=-7.194
compound=Cc1c(S(=O)(=O)N2CCC(N)CC2)cnn1C data_value=-0.6017
compound=O=C(NCc1cccnc1)c1ccc(C(F)(F)F)nc1 data_value=2.561

// query Give the measured Percent Effect of CNC(=O)NC(=O)CCN1CCCC(C)C1 (stereo unspecified) .
// result 60.28

// query What about this compound? O=C(NCC(O)C1CC1)c1cccnc1C(F)(F)F (stereo unspecified)
// result -5.668

// query Moving on to NC1CCN(c2ccc(C(F)(F)F)cn2)CC1
// result 7.702

###

Experiment: In vitro enzyme assay to detect hydrolysis of chlorophenol red-beta-D-[…] directly proportional to the number of Toxoplasma stably expressing beta-galactosidase
Assay type: functional, organism-based, Toxoplasma gondii
Set-up: scale not given: in the data most compounds retested in dose-response had high values
Conditions: 10 µM
Screen size: about 85,000 compounds; about 440 (0.52%) showed an effect of 50% or more. This excerpt belongs to a sample that is enriched for strong results.
Criterion: Percent Effect meeting or surpassing 20%. Met: rule met. Not met: rule not met.

molecule=Cn1cc(CN2CCn3cc(Cn4cccn4)nc3C2)cn1.O=C(O)C(F)(F)F class="rule met"
molecule=Cc1nn(C)c(=O)c2nn(-c3ccc(F)cc3)c(C)c12 class="rule not met"

// query In plain terms: is recorded Percent Effect at least 20% for CCCn1c(N2CCCC(C)C2)nc2c(C)nn(C)c2c1=O (centres undefined) ?
// result rule met

// query CC(=O)Nc1cccc([C@H]2C[C@@H](NC(C)=O)CCO2)c1 ?
// result rule not met

// query Repeat for the following molecule: Cc1nn(C)c2c(=O)n(Cc3ccc(Cl)cc3)nnc12
// result rule met

// query Can you check Cc1ccc(CNC(=O)c2cc(NC(=O)C3CC3)n(C)n2)o1 next?
// result rule not met

// query Thanks! And CC(C)c1cc(NC(=O)c2ccc(C(=O)NC(C)(C)C)cc2)[nH]n1 ?
// result rule not met

// query What do you have for Cc1ncc(CNCCO)c2cc(C(=O)c3ccc(Br)cc3)oc12.Cl ?
// result rule met

// query Do the same for N#Cc1c(Cl)nsc1NCC1(c2ccccc2)CCC1 please
// result rule met

// query Continue with Cc1nn(C)c2c(N3CCCC3)nc(C3CC3)nc12
// result rule not met
